- measurement-target: Voltage-gated inwardly rectifying potassium channel KCNH2 (Homo sapiens) (UniProt Q12809)
- Sequence (Q12809 whole entry, looked up): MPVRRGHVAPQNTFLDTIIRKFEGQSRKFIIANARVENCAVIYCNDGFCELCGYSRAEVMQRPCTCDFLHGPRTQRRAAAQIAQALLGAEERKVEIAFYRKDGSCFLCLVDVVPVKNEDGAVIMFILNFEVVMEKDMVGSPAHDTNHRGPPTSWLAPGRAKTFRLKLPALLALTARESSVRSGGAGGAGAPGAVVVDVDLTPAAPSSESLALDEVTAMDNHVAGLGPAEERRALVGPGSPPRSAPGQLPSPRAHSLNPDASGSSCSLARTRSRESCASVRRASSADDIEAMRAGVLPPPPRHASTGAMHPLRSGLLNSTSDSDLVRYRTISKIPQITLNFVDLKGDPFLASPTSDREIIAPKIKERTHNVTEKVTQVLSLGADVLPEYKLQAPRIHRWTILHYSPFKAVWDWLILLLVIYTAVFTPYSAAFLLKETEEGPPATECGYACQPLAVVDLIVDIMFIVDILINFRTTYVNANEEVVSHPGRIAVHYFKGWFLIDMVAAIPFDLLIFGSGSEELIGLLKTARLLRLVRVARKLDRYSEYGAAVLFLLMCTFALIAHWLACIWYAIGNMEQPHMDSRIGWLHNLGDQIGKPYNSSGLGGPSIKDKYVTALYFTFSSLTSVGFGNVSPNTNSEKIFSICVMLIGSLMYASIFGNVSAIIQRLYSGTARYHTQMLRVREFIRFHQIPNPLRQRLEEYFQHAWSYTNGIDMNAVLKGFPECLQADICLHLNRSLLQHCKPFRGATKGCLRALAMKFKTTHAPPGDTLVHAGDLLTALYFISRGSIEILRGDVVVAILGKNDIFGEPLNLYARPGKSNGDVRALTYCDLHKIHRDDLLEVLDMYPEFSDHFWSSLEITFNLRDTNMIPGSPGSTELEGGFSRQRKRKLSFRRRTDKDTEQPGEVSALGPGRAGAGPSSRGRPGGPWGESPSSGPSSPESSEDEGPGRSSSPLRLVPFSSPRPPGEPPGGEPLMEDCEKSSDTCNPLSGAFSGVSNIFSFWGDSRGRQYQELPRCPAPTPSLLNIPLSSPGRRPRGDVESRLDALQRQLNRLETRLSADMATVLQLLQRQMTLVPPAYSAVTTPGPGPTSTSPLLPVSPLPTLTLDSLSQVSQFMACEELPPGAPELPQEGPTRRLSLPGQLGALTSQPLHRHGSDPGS
- assay-info: Human Ether-a-go-go-Related Gene (hERG) channel small molecule antagonists: fluorescence cell-based qHTS assay (AID 1671200); also: nearly all actives have a fitted effect of over 50% in size
- protocol-conditions: hERG-U2OS cells, FluxOR thallium flux fluorescence; series mostly up to 76.8 µM
- Text: National Center for Advancing Translational Sciences [NCATS] U.S. Environmental Protection Agency [EPA] National Institutes of Environmental Health Sciences [NIEHS] National Toxicology Program [NTP] U.S. Food and Drug Administration [FDA] Mutations in the hERG channel cause Long QT (LQT) syndrome. LQT syndrome is a cardiac disorder which can cause ventricle arrhythmia and sudden death. Additionally, compounds which block the hERG channel can cause acquired LQT syndrome. […]
Inconclusive results are not listed. Calls of active or inactive are those of the source. Calls follow the shape of the dose curve; as a rule, active = well fitted inhibition curve with a large enough effect in the repeat runs; inconclusive = weak or mixed curves; inactive = flat fitted curve, though single readings scatter.
Outcome codes: T (active), F (inactive)

molecule=CC(=O)CC(=O)c1ccccc1 class=F
molecule=CC(=O)N(O)CCCCCNC(=O)CCC(=O)N(O)CCCCCNC(=O)CCC(=O)N(O)CCCCCN class=F
molecule=O=C1Nc2cc(Cl)ccc2Oc2ccccc21 class=F
molecule=S=C(S)NCCNC(=S)S class=F
molecule=COc1ccc(OC)c(OC)c1 class=F
molecule=O=C(NN1CCCC1)NS(=O)(=O)c1ccc(Cl)cc1 class=F
molecule=O=C(Cl)c1c(Cl)cccc1Cl class=F
molecule="CC(=O)/C(C)=C/C1C(C)=CCCC1(C)C (stereo not drawn)" class=F
molecule="O=C(O)C1CCC(C(=O)O)CC1 (stereo not drawn)" class=F
molecule=CCCC[C@H]1CN(CC2CCOCC2)C(=O)OC12CCN(C1(C)CCN(C(=O)c3c(C)ncnc3C)CC1)CC2 class=T
molecule="CC(C(=O)O)c1ccc(-c2ccccc2)c(F)c1 (stereo not drawn)" class=F
molecule=CCCCC(CC)(CO)CO class=F
molecule="C1CCC2OC2C1 (stereo not drawn)" class=F

Cited source: PubChem BioAssay (Tox21)
